Experiment: blockers of mitochondrial fusion, WT vs mutant – cell-based, chemical genetic, wild-type and mutant, confirmation (AID 1361)
Details: Cell-based mitochondrial fusion phenotype, imaging, WT cells
Active and inactive are the calls of the source. How the calls were made is not given here.
Outcomes: active, inactive

COMPOUND: Cc1nc2ccccc2c2oc(C(=O)Nc3ccc(C(C)C)cc3)cc12
LABEL: inactive
--
COMPOUND: CC(C)(C)n1nnnc1C(c1ccc(Cl)cc1)N(Cc1cccnc1)Cc1ccco1 (stereo not given)
LABEL: inactive
--
COMPOUND: O=C(c1ccco1)N1CCN(c2c(-c3ccccc3)c3cc(Cl)ccc3[nH]c2=O)CC1
LABEL: active
--
COMPOUND: CC(=O)N(C)c1ccc(OCC(O)Cn2c3ccc(Cl)cc3c3cc(Cl)ccc32)cc1 (stereo not given)
LABEL: active
--
COMPOUND: Clc1ccc2ncc(-c3nnnn3-c3ccccc3)c(-c3ccccc3)c2c1
LABEL: active

----------
Each entry below carries its reported IC50.
Test: blockers of mitochondrial fusion, WT vs mutant – cell-based, chemical genetic, wild-type and mutant, confirmation (AID 1361)
Conditions: Cell-based mitochondrial fusion phenotype, imaging, WT cells
The source made the active and inactive calls. The rule behind the calls is not given here.

COMPOUND: O=C(CN1CCCCC1)Nc1ccc(Br)cc1C(=O)c1ccccc1Cl
IC50: 12 µM
//
COMPOUND: CC(C)(C)[C@@H]1C=C(C(=O)N2CCN(Cc3ccccc3)CC2)O[C@H](OCc2ccc(CO)cc2)C1
IC50: 23.8 µM
//
COMPOUND: Cc1ccccc1NC(=O)CNc1ccccc1N1CCCCC1
IC50: > 25 µM (inactive)
//
COMPOUND: O=C(Nn1c(C2CCCCC2)nc2ccccc2c1=O)c1ccc(Cl)c([N+](=O)[O-])c1
IC50: 14.8 µM
//
COMPOUND: CC1=CCC[C@@H]2[C@@](C)(CC/C(C)=C/C(=O)O)[C@H](C)CC[C@@]12C
IC50: 21.7 µM
//
COMPOUND: Clc1ccc(Cn2c(/C=C/c3ccco3)nc3ccccc32)cc1
IC50: 12.6 µM
//
COMPOUND: Cc1ccc(O)c(-c2cc(-c3ccccc3[N+](=O)[O-])[nH]n2)c1
IC50: > 25 µM (inactive)
//
COMPOUND: COc1ccccc1NC(=O)CC1S/C(=N/N=C2\CCCc3ccccc32)NC1=O (stereo unspecified)
IC50: 19.6 µM
//
COMPOUND: Cc1oc(-c2ccccc2)nc1CN1C(=O)C(C)N=C(c2ccccc2F)c2cc(Cl)ccc21 (stereo unspecified)
IC50: 12.4 µM
//
COMPOUND: CCc1nn(C(C)C(=O)NCCN2CCN(c3cccc(C)c3C)CC2)c(=O)c2cc3occc3n12 (stereo unspecified)
IC50: > 25 µM (inactive)
//
COMPOUND: COc1ccc2nc(NC(=O)CN(c3ccc(C)cc3)S(=O)(=O)c3c(C)nn(C)c3C)sc2c1
IC50: 16 µM
//
COMPOUND: COc1ccc(NC(=O)CSc2ccc3c(c2)OCCO3)cc1OC
IC50: > 25 µM (inactive)
//
COMPOUND: Cc1ccc(/C=N/NC(=O)COc2ccccc2-c2ccccc2)cc1
IC50: 14.9 µM
//
COMPOUND: N#CC1=C(N)SC(N)=C(C#N)C1c1c(Cl)cccc1Cl
IC50: > 25 µM (inactive)
//
COMPOUND: Fc1ccccc1Nc1nc2c(s1)CCc1ccccc1-2
IC50: 17.7 µM
//
COMPOUND: Fc1ccc(C(CCCn2nnc(-c3cccnc3)n2)c2ccc(F)cc2)cc1
IC50: 21.9 µM
//
COMPOUND: Cc1cc(Oc2cnn(C(C)(C)C)c(=O)c2Cl)cc(C(C)C)c1
IC50: 16.9 µM
//
COMPOUND: O=C(CCn1nnc2ccccc21)Nc1nnc(Cc2ccccc2)s1
IC50: > 25 µM (inactive)
//
COMPOUND: CC1CCc2nc(NC(=O)CN3CCN(c4ccc(F)cc4)CC3)sc2C1 (stereo unspecified)
IC50: > 25 µM (inactive)
//
COMPOUND: C=CCNC1=C(Cl)C(=O)N(c2cccc(Cl)c2Cl)C1=O
IC50: > 25 µM (inactive)
//
COMPOUND: CC1(C(=O)OCC(=O)c2c[nH]c3ccccc23)CC1(Cl)Cl (stereo unspecified)
IC50: 5.84 µM

----------
Assay: blockers of mitochondrial fusion, WT vs mutant – cell-based, chemical genetic, wild-type and mutant, confirmation (AID 1361)
Conditions: Cell-based mitochondrial fusion phenotype, imaging, WT cells
The source made the active and inactive calls. The rule behind the calls is not given here.
Outcomes: True = active, False = inactive

COMPOUND: COc1ccc(C(=O)Nc2ccc(Cl)cc2C(=O)NCCN2CCOCC2)cc1
LABEL: False

COMPOUND: O=C(N/N=C/C=C/c1ccccc1)C1CC1c1ccccc1 (stereo unspecified)
LABEL: False

COMPOUND: CC1CCN(c2nc(Cl)nc(Nc3ccc([N+](=O)[O-])cc3)n2)CC1
LABEL: True

COMPOUND: Cc1ccc(C(=O)/C=C/c2c(C)nn(-c3ccccc3)c2Cl)cc1
LABEL: True

COMPOUND: Cc1ccc(-n2cccc2C(=S)N=P(N(C)C)(N(C)C)N(C)C)cc1
LABEL: True

COMPOUND: CC(C)=CCc1c(O)c(CC=C(C)C)c2c(c1O)C(=O)CC(c1ccc(O)cc1)O2 (stereo unspecified)
LABEL: True

----------
Assay: blockers of mitochondrial fusion, WT vs mutant – cell-based, chemical genetic, wild-type and mutant, confirmation (AID 1361)
Conditions: Cell-based mitochondrial fusion phenotype, imaging, WT cells
Activity calls are given as the source filed them. The rule behind the calls is not given here.
Outcomes: active, inactive

COMPOUND: COc1ccc(CNC(=O)C2CC(=O)N(c3ccc(OCC(=O)N4C(C)CCCC4C)cc3)C2)cc1 (stereo unspecified)
LABEL: inactive
//
COMPOUND: O=c1[nH]c(=O)n(Cc2ccco2)c2c1C(C(F)(F)F)(C(F)(F)F)N=C(Cc1ccccc1)N2
LABEL: inactive
//
COMPOUND: COc1ccc(CC(=O)N2CCOCC2)cc1OC
LABEL: inactive
//
COMPOUND: Cc1ccc(S(=O)(=O)n2c3ccc(Cl)cc3c3nc(C)sc32)cc1
LABEL: active
//
COMPOUND: O=C(NC(=S)NCCC1=CCCCC1)c1ccccc1Br
LABEL: active
//
COMPOUND: CCCCCCP(=O)(O)c1ccccc1
LABEL: inactive
//
COMPOUND: CCOc1cccc(-c2nn(-c3ccccc3)cc2/C=C(/C#N)C(=O)NCCCn2ccnc2)c1
LABEL: inactive
//
COMPOUND: O=C(COC(=O)c1ccc([N+](=O)[O-])s1)Nc1ccccc1
LABEL: active
//
COMPOUND: O=C(CSCc1cccc(Cl)c1)Nc1ccccc1-c1ccccc1
LABEL: active
//
COMPOUND: COc1ccc(CCn2nnnc2C(CC(C)C)N2CCN(c3ncccn3)CC2)cc1OC (stereo unspecified)
LABEL: inactive
//
COMPOUND: NC(=S)N/N=C/c1ccccc1OCCSc1ccc(Cl)cc1
LABEL: active

----------
Experiment: blockers of mitochondrial fusion, WT vs mutant – cell-based, chemical genetic, wild-type and mutant, confirmation (AID 1361)
Settings: Cell-based mitochondrial fusion phenotype, imaging, WT cells
Calls of active or inactive are those of the source. No rule for the calls is given here.
Outcomes: class 1 = active, class 0 = inactive

MOLECULE: Cc1cc(Nc2nc(Cl)c(Cl)cc2Cl)n(-c2ccccc2)n1
LABEL: class 1
--
MOLECULE: O=C(c1csc(Nc2ccccc2Cl)n1)N1CCCC1
LABEL: class 0
--
MOLECULE: Cc1ccc(C)c(NC(=O)c2ccccc2C(=O)c2ccccc2)c1
LABEL: class 1
--
MOLECULE: O=C(CSCC(=O)N1CCCCC1)Nc1nc(-c2ccccc2)c(-c2ccccc2)s1
LABEL: class 1
--
MOLECULE: CC(NC(=O)/C(=C/c1ccc(OC(F)F)cc1)c1ccccc1)c1ccccc1 (centres undefined)
LABEL: class 1
--
MOLECULE: CCN(CC)C(=O)C1CC(=O)N(c2ccc(F)c(Cl)c2)C1 (centres undefined)
LABEL: class 0
--
MOLECULE: O=C(CC(Nc1ccc(F)cc1)c1ccccc1)c1ccccc1 (centres undefined)
LABEL: class 1
--
MOLECULE: NS(=O)(=O)c1ccc(N2N=C(c3ccccc3)CC2c2ccccc2)cc1 (centres undefined)
LABEL: class 1
--
MOLECULE: COC(=O)C1CCN(C(=O)c2cc(OC)c(OC)c(OC)c2)CC1
LABEL: class 0
--
MOLECULE: COc1cccc(-c2ccc(C#N)c(OC(=O)c3c(Cl)cccc3Cl)n2)c1
LABEL: class 0
--
MOLECULE: CCn1c2ccccc2c2cc(/C=N/NC(=O)c3cccc(C)c3)ccc21
LABEL: class 0
--
MOLECULE: CC(NC(=O)COc1ccccc1-c1ccccc1)c1ccccc1 (centres undefined)
LABEL: class 1
--
MOLECULE: Clc1ccc(C2=NNC(=NCc3ccc4c(c3)OCO4)SC2)cc1
LABEL: class 0
--
MOLECULE: Cc1cc2ncn(/N=C/c3cccnc3)c2cc1C
LABEL: class 0
--
MOLECULE: OCCN(CCO)CC(O)COc1ccc(C23CC4CC(CC(C4)C2)C3)cc1 (centres undefined)
LABEL: class 0
--
MOLECULE: CC(=O)Oc1ccc(N(C(C)=O)S(=O)(=O)c2cccs2)cc1
LABEL: class 0
--
MOLECULE: CCOC(=O)N1CCN(C(=O)CN(C)S(=O)(=O)c2ccc3c(c2)C(C)(C)C(=O)N3C)CC1
LABEL: class 0
--
MOLECULE: COc1cc(/C=N/N=C(/C(=O)c2ccccc2)c2ccccc2)cc(OC)c1O
LABEL: class 1
--
MOLECULE: CC(C)Nc1nc(Oc2cccc(Cl)c2Cl)cc(C(F)(F)F)n1
LABEL: class 1
--
MOLECULE: Cc1cc(CC(C)C)n(-c2nc3ccccc3c(=O)n2OCc2ccccc2)n1
LABEL: class 0
--
MOLECULE: CC(C)CCNC(=O)CN(CC1CCCO1)C(=O)CCC(=O)Nc1ccccn1 (centres undefined)
LABEL: class 0
--
MOLECULE: COc1ccccc1N1CCN(C(=O)c2ccc(CSc3ccccc3)cc2)CC1
LABEL: class 1
--
MOLECULE: CCOc1ccc2c(c1)C(C)=CC(C)(C)N2S(=O)(=O)c1ccc(C)cc1
LABEL: class 1
--
MOLECULE: FC(F)(F)c1cnc(N2CCC(=NOCc3ccc(Cl)cc3)CC2)c(Cl)c1
LABEL: class 1
--
MOLECULE: Cc1nnc(NC(=O)c2sc3nc(-c4cccs4)cc(C(F)(F)F)c3c2N)s1
LABEL: class 0
--
MOLECULE: COC(=O)c1ccc(-c2sc3nc(N4CCOCC4)c4c(c3c2N)CCCC4)o1
LABEL: class 0
--
MOLECULE: COc1ccc(C2C(C#N)=C(SC)NC3=C2C(=O)CC(C)(C)C3)cc1 (centres undefined)
LABEL: class 0
--
MOLECULE: CN(C)S(=O)(=O)c1ccc(C(=O)Nc2nnc(-c3ccc4c(c3)CCCC4)o2)cc1
LABEL: class 1
--
MOLECULE: N=c1c2c(n(Cc3ccc(F)cc3)c3c1CCC3)CCC2
LABEL: class 1
--
MOLECULE: Cc1cc(C)nc(N2CCC(C(=O)NCCc3ccc(F)cc3)CC2)n1
LABEL: class 0
--
MOLECULE: O=[N+]([O-])c1ccc(/C=N/Nc2nc(N3CCCCCC3)nc(N3CCCCCC3)n2)o1
LABEL: class 1
--
MOLECULE: CC(C)(C)n1nnnc1C(c1ccc(F)cc1)N(Cc1ccc(F)cc1)Cc1ccco1 (centres undefined)
LABEL: class 1
--
MOLECULE: COc1ccc(-c2noc(CSc3nnc(Cc4ccccc4)n3-c3ccc(Cl)cc3)n2)cc1
LABEL: class 1
--
MOLECULE: OC(CC1CC12c1ccccc1-c1ncccc12)(c1ccccc1)c1ccccc1 (centres undefined)
LABEL: class 1
--
MOLECULE: COC(=O)Nc1snnc1C
LABEL: class 0
--
MOLECULE: CC(C)N(C(=S)NC1CCCCC1)c1ccccc1
LABEL: class 0
--
MOLECULE: Cc1ccc(O)c(C(=O)/C=C/c2ccc3c(c2)OCCCO3)c1
LABEL: class 1
--
MOLECULE: CCC1(C)Cc2c(sc3[nH]c(=S)n(Cc4ccccc4)c(=O)c23)CO1 (centres undefined)
LABEL: class 1
--
MOLECULE: Cn1c(=O)c(NC2CCCCC2)c2c3c(cccc31)C(=O)c1ccccc1-2
LABEL: class 1
--
MOLECULE: O=S(=O)(NCCOCCNS(=O)(=O)c1ccccc1)c1ccccc1
LABEL: class 0
--
MOLECULE: O=C(COC(=O)Cc1c(Cl)cccc1Cl)Nc1ccccc1-c1ccccc1
LABEL: class 1
--
MOLECULE: CCOC(=O)C1=C(C)N=C2SCCC(=O)N2C1c1sccc1C (centres undefined)
LABEL: class 0
--
MOLECULE: CCOC(=O)C1CCN(CC(=O)Nc2cc(C)nn2-c2nc3ccccc3s2)CC1
LABEL: class 0
--
MOLECULE: COc1ccc(C(C(=O)Nc2ccc(F)cc2)N(C(=O)Cn2nnc3ccccc32)C2CC2)cc1 (centres undefined)
LABEL: class 0

Recorded values, source PubChem BioAssay AID1361.
